This collection of values is drawn from the kinase profiling compilation of Christmann-Franck et al. (2016).

# assayed.system: MAPK12 (human)
# protocol.text: radiometric filter-binding kinase assay, Kinase HotSpot
# run.parameters: compound 0.5 µM; ATP 10 µM
Assignment: determine reported residual activity for the given molecules.
Answer format: value, then unit.

For every record below, what is its residual activity?
1. Oc1ccc(Nc2nc(-c3ccc(Cl)cc3)cs2)cc1
2. CN(C)C[C@H]1CCn2c(c(C3=C(c4cn(C)c5ccccc45)C(=O)NC3=O)c3ccccc32)C1

["106%", "102%"]

* * *

# assayed.system: CSF1R (human) (UniProt P07333)
# Sequence (P07333 whole entry, looked up): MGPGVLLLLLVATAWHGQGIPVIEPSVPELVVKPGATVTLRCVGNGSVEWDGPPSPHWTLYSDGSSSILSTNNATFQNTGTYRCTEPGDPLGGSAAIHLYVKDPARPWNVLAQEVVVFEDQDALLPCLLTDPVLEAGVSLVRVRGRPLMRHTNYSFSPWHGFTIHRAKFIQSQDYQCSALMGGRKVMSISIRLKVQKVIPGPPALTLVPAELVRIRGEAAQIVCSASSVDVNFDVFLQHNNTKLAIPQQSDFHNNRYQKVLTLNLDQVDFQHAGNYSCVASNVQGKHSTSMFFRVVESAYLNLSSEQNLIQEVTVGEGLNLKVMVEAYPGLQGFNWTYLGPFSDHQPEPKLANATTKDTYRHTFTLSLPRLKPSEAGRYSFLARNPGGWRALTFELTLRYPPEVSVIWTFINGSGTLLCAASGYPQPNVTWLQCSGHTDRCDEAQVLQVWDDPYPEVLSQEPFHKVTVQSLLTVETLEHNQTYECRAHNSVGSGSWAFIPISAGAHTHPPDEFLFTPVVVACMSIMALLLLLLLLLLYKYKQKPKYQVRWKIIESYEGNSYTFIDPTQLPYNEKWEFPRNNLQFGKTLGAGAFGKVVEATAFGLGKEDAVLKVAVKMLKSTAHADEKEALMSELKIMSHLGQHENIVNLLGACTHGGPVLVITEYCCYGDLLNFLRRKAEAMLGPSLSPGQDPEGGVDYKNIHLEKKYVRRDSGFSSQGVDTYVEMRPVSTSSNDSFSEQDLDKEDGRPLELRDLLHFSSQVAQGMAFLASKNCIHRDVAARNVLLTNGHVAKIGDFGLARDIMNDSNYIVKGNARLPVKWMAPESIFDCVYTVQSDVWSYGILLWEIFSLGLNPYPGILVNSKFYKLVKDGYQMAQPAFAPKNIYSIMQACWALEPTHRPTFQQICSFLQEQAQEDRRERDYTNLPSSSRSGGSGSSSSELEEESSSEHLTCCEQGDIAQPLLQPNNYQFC
# protocol.text: radiometric filter-binding kinase assay, Kinase HotSpot
# run.parameters: compound 0.5 µM; ATP 10 µM
Each entry gets false if its residual activity stays under 90%, and true if its residual activity is 90% or above.

Sample answers from the record:
| molecule | label |
| --- | --- |
| CCn1cnc2c(Nc3cccc(Cl)c3)nc(N[C@@H]3CCCC[C@@H]3N)nc21 | true |
| COc1ccc(OC)c2c(=S)c3ccccc3[nH]c12 | true |
| O=C1NC(=O)C(c2c[nH]c3ccccc23)=C1c1c[nH]c2ccccc12 | true |

Determine whether measured residual activity meets or exceeds 90% for `COc1cc2ncnc(N3CCN(C(=O)Nc4ccc(Oc5ccccc5)cc4)CC3)c2cc1OC`
false

Next up: `Nc1nccc(-c2c(-c3ccc(F)cc3)ncn2C2CCNCC2)n1`
true

Would you kindly repeat that for O=C1Nc2ccccc2/C1=C1/Nc2ccccc2/C1=N\OCCC(O)CO (configuration not stated) ?
false
